Test system: Mus musculus
EXPERIMENT NOTES: Antidepressant activity in Mus musculus (mouse) assessed as decrease in immobility at 30 mg/kg, ip measured after 30 min by despair swim test
Type: functional
CONDITION SUMMARY: 0.5 h, route intraperitoneal
Rule: inhibition in vivo at 30 mg/kg of 30% or more gives true (1); anything lower gives false (0).

>>> assigned_class("NS(=O)(=O)c1ccc(Nc2nnc(Sc3ccc(S(N)(=O)=O)cc3)s2)cc1")
"false (0)"
>>> assigned_class("NS(=O)(=O)c1ccc(Sc2nnc(Nc3ccc(C(F)(F)F)cc3)s2)cc1")
"false (0)"
>>> assigned_class("O=S(=O)(Cl)c1ccc(Sc2nnc(Nc3ccc(C(F)(F)F)cc3)s2)cc1")
"true (1)"
>>> assigned_class("O=S(=O)(Cl)c1ccc(Nc2nnc(Sc3ccc(S(=O)(=O)Cl)cc3)s2)cc1")
"false (0)"
>>> assigned_class("Cc1ccc(Nc2nnc(Sc3ccc(S(N)(=O)=O)cc3)s2)cc1")
"true (1)"
>>> assigned_class("NS(=O)(=O)c1ccc(Sc2nnc(Nc3ccc(C(Cl)(Cl)Cl)cc3)s2)cc1")
"false (0)"
>>> assigned_class("NS(=O)(=O)c1ccc(Sc2nnc(Nc3ccc(Br)cc3)s2)cc1")
"false (0)"
>>> assigned_class("O=S(=O)(Cl)c1ccc(Sc2nnc(Nc3ccc(F)cc3)s2)cc1")
"false (0)"
>>> assigned_class("O=S(=O)(Cl)c1ccc(Sc2nnc(Nc3ccc(Cl)cc3)s2)cc1")
"false (0)"
>>> assigned_class("NS(=O)(=O)c1ccc(Sc2nnc(Nc3ccc(F)cc3)s2)cc1")
"true (1)"
>>> assigned_class("NS(=O)(=O)c1ccc(Sc2nnc(Nc3ccc(S(=O)(=O)Cl)cc3)s2)cc1")
"true (1)"

----------
Test system: Rattus norvegicus
EXPERIMENT NOTES: Anticonvulsant activity in Rattus norvegicus Wistar albino (rat) assessed as duration of tonic hind limb extensor at 30 mg/kg, ip measured after 30 min by maximal electroshock-induced convulsion test (reference value: 15.71 +/- 0.01 sec)
Type: functional, Hindlimb
CONDITION SUMMARY: route intraperitoneal
Rule: Time of 7 s or more gives Fulfilled; anything lower gives Not fulfilled.

>>> assigned_class("Cc1ccc(Nc2nnc(Sc3ccc(S(N)(=O)=O)cc3)s2)cc1")
"Not fulfilled"
>>> assigned_class("O=S(=O)(Cl)c1ccc(Sc2nnc(Nc3ccc(Br)cc3)s2)cc1")
"Fulfilled"
>>> assigned_class("O=S(=O)(Cl)c1ccc(Sc2nnc(Nc3ccc(C(F)(F)F)cc3)s2)cc1")
"Not fulfilled"
>>> assigned_class("NS(=O)(=O)c1ccc(Sc2nnc(Nc3ccc(C(F)(F)F)cc3)s2)cc1")
"Fulfilled"
>>> assigned_class("NS(=O)(=O)c1ccc(Sc2nnc(Nc3ccc(F)cc3)s2)cc1")
"Not fulfilled"
>>> assigned_class("O=S(=O)(Cl)c1ccc(Sc2nnc(Nc3ccc(F)cc3)s2)cc1")
"Fulfilled"
>>> assigned_class("O=S(=O)(Cl)c1ccc(Sc2nnc(Nc3ccc(Cl)cc3)s2)cc1")
"Fulfilled"
>>> assigned_class("NS(=O)(=O)c1ccc(Nc2nnc(Sc3ccc(S(N)(=O)=O)cc3)s2)cc1")
"Fulfilled"
>>> assigned_class("NS(=O)(=O)c1ccc(Sc2nnc(Nc3ccc(Br)cc3)s2)cc1")
"Fulfilled"
>>> assigned_class("NS(=O)(=O)c1ccc(Sc2nnc(Nc3ccc(Cl)cc3)s2)cc1")
"Not fulfilled"
>>> assigned_class("Cc1ccc(Nc2nnc(Sc3ccc(S(=O)(=O)Cl)cc3)s2)cc1")
"Fulfilled"
>>> assigned_class("O=S(=O)(Cl)c1ccc(Nc2nnc(Sc3ccc(S(=O)(=O)Cl)cc3)s2)cc1")
"Fulfilled"
>>> assigned_class("NS(=O)(=O)c1ccc(Sc2nnc(Nc3ccc(S(=O)(=O)Cl)cc3)s2)cc1")
"Not fulfilled"

----------
Tested on: Mus musculus
EXPERIMENT NOTES: Anxiolytic activity in Mus musculus balb/cj (mouse) assessed as time spent in open arm at 30 mg/kg, ip measured after 30 min by elevated pluze maze test (reference value: 12.25 +/- 0.02 sec)
Format: functional
CONDITION SUMMARY: route intraperitoneal
RECORDED METRIC: Time

>>> experimental_result("NS(=O)(=O)c1ccc(Sc2nnc(Nc3ccc(S(=O)(=O)Cl)cc3)s2)cc1")
"45.93 s"
>>> experimental_result("NS(=O)(=O)c1ccc(Sc2nnc(Nc3ccc(C(Cl)(Cl)Cl)cc3)s2)cc1")
"24.2 s"
>>> experimental_result("O=S(=O)(Cl)c1ccc(Sc2nnc(Nc3ccc(Cl)cc3)s2)cc1")
"30.01 s"
>>> experimental_result("O=S(=O)(Cl)c1ccc(Sc2nnc(Nc3ccc(F)cc3)s2)cc1")
"25.26 s"
>>> experimental_result("NS(=O)(=O)c1ccc(Sc2nnc(Nc3ccc(Cl)cc3)s2)cc1")
"45.51 s"
>>> experimental_result("Cc1ccc(Nc2nnc(Sc3ccc(S(N)(=O)=O)cc3)s2)cc1")
"45.69 s"
>>> experimental_result("O=S(=O)(Cl)c1ccc(Sc2nnc(Nc3ccc(C(Cl)(Cl)Cl)cc3)s2)cc1")
"26.2 s"
>>> experimental_result("O=S(=O)(Cl)c1ccc(Sc2nnc(Nc3ccc(C(F)(F)F)cc3)s2)cc1")
"47.92 s"
>>> experimental_result("Cc1ccc(Nc2nnc(Sc3ccc(S(=O)(=O)Cl)cc3)s2)cc1")
"22.2 s"
>>> experimental_result("NS(=O)(=O)c1ccc(Sc2nnc(Nc3ccc(Br)cc3)s2)cc1")
"29.26 s"
>>> experimental_result("NS(=O)(=O)c1ccc(Sc2nnc(Nc3ccc(C(F)(F)F)cc3)s2)cc1")
"23.72 s"
>>> experimental_result("NS(=O)(=O)c1ccc(Nc2nnc(Sc3ccc(S(N)(=O)=O)cc3)s2)cc1")
"26.64 s"
>>> experimental_result("O=S(=O)(Cl)c1ccc(Nc2nnc(Sc3ccc(S(=O)(=O)Cl)cc3)s2)cc1")
"27.63 s"
>>> experimental_result("O=S(=O)(Cl)c1ccc(Sc2nnc(Nc3ccc(Br)cc3)s2)cc1")
"25.2 s"
>>> experimental_result("NS(=O)(=O)c1ccc(Sc2nnc(Nc3ccc(F)cc3)s2)cc1")
"46.31 s"

----------
Measured inhibition in vivo at 30 mg/kg accompanies every entry in the list below.
System: Mus musculus
EXPERIMENT NOTES: Antidepressant activity in Mus musculus (mouse) assessed as decrease in immobility at 30 mg/kg, ip measured after 30 min by despair swim test
Assay type: functional
CONDITION SUMMARY: 0.5 h, route intraperitoneal
RECORDED METRIC: inhibition in vivo at 30 mg/kg

>>> experimental_result("NS(=O)(=O)c1ccc(Sc2nnc(Nc3ccc(Cl)cc3)s2)cc1")
"29.2%"
>>> experimental_result("O=S(=O)(Cl)c1ccc(Sc2nnc(Nc3ccc(Br)cc3)s2)cc1")
"30.7%"
>>> experimental_result("Cc1ccc(Nc2nnc(Sc3ccc(S(=O)(=O)Cl)cc3)s2)cc1")
"29.2%"
>>> experimental_result("O=S(=O)(Cl)c1ccc(Sc2nnc(Nc3ccc(C(Cl)(Cl)Cl)cc3)s2)cc1")
"30.2%"
